Just for reference, ChEMBL document CHEMBL3988442 is where these values come from.

- Tested on: Leishmania donovani
- TEST_PROTOCOL: Leishmania intramacrophage assay
- Assay type: functional, organism-based
- Set-up: scale not given: in the data most compounds retested in dose-response had high values
- TEST_SETTINGS: 30.3 µM; […]
Among all 69,000 compounds or so, about 1,000 (1.4%) showed an effect of 50% or more. For the sample, strong results were picked, then their nearest neighbours and some compounds at random.
Reported values of Percent Effect for individual entries

Known Percent Effect results, listed for orientation:
CC(C)(C)c1ccc(-n2ncc3c2CCCC3N)cc1 (centres undefined) :: 27.02%
Cc1ccc(-n2ccnc2-c2cn(C3CCNCC3)nn2)c(Cl)c1 :: 17.13%

Looking up `Cc1csc(CN2CC[C@H]3O[C@H](C(=O)Nc4cccnc4)CC[C@H]32)n1.O=C(O)C(F)(F)F.O=C(O)C(F)(F)F` , I see its Percent Effect listed as 50.68%

Looking up `CC(C)CN1C[C@H]2N(c3ncccn3)CCC[C@@]2(C(=O)NCC2CC2)C1` , I see its Percent Effect listed as 11.67%

Looking up `COc1cc2nc(NCc3cc(C)on3)nc(N)c2cc1OC` , I see its Percent Effect listed as -3.382%

Looking up O=C(c1ccco1)N1CCOCC2(C1)CN(c1ccoc1)C(=O)CO2 (centres undefined) , I see its Percent Effect listed as 15.48%

Looking up `COc1cccc(CCn2ccnc2-c2cn(C3CCNCC3)nn2)c1` , I see its Percent Effect listed as -3.244%

Looking up `CC1=C(CCN2CC[C@@H](N3CCC(O)CC3)[C@H](O)C2)C(C)(C)CCC1` , I see its Percent Effect listed as 56.28%
